- Method: NCI Yeast Anticancer Drug Screen. Data for the sgs1 mgt1 strain (AID 161)
- Test Conditions: S. cerevisiae sgs1 mgt1 strain, at 50.0 µM, hits give high values
This is part of a sample that, as a whole, favours compounds with a hit. Of some 79,000 tested, about 15% had one in any assay.
Entry flag: satisfied if growth inhibition reaches 10%; not satisfied if it does not.

Some entries whose results are on file:
1. Cc1ccc2c(sc(-c3ccc4c(c3)sc(-c3ccc5c(c3)sc(-c3ccc(N(C)C)cc3)[n+]5C)[n+]4C)[n+]2C)c1S(=O)(=O)O (tested in a mixture with another compound) :: satisfied
2. COC(=O)C(=O)C(C(=O)C(=O)Nc1ccccc1OC)c1nc2ccc([N+](=O)[O-])cc2[nH]c1=O (stereo not drawn) :: satisfied
3. Cc1ccc2c(/C=C/c3ccc(N(C)C)cc3)ccc(C(C)C)cc1-2 :: satisfied
4. O=C1NC(N/N=C\c2ccccc2)=N/C1=C/c1ccccc1 :: not satisfied

Task: Evaluate "COc1cc(N(CCC#N)CCC#N)ccc1/C(N=Nc1ccc(Cl)cc1)=N/NC(=O)c1cc(Br)ccc1O" : growth inhibition at minimum 10%?
Result: not satisfied

Task: growth inhibition >= 10% for "COc1ccc(-c2nc3ccccc3c(=S)n2OC(C)=O)cc1" ?
Result: satisfied

Task: I'd appreciate it if you could say whether "COc1ccc(/C=c2\[nH]c3nc(=O)c(N4CCOCC4)c(N)n3c2=O)cc1" has growth inhibition at least equal to 10%.
Result: not satisfied

Values compiled from PubChem BioAssay (NCI).
